Biological target: T1, Cynomolgus monkey PDGF-BB (cynomolgus monkey, UniProt P01127 82-190 (human entry), limits assumed)
T1 chain: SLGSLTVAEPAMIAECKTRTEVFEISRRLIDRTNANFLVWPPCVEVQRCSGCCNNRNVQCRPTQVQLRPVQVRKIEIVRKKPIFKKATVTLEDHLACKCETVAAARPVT
Experiment: cell-based or functional assay
Endpoint name: cynoPDGF-BB NIH-3T3 Proliferation IC50
Please provide the amount together with its unit, number first.

Could you tell me which cynoPDGF-BB NIH-3T3 Proliferation IC50 is on file for CL-33759-IgG (antibody, V domains shown) VH: EVTLRESGPALVKPTQTLTLTCTFSGFSLSTYGMGVGWIRQPPGKALEWLANIWWDDDKYYNPSLKNRLTISKDTSKNQVVLTMTNMDPVDTATYYCARIESVWTRYDFDYWGQGTMVTVSS VL: EIVLTQSPGTLSLSPGERATLSCERSSGDIWQTYVSWYQQKPGQAPRLVIYGDDQRASGIPDRFSGSGSGTDFTLTISRLEPEDFAVYYCQSYDIDIDITFGGGTKVEIK ? 0.18 nM

Recorded values, source patent US20170015742A1.
